System: HOP-62
Test Name: NCI tumour cell line growth inhibition, 48 h
Active and inactive are the calls of the source. Rule as the data show it: active = GI50 up to about 1.1 µM and inactive = higher.
Overview of reported GI50 across a group of compounds:

[
  {
    "Compound": "O=C(c1cccs1)N(C(=O)N1CCC(c2ccccc2)CC1)c1ccccc1",
    "GI50": "36 µM (inactive)"
  },
  {
    "Compound": "N=C(N)NCCN1CC2CCC(CC2)C1",
    "GI50": "> 100 µM (inactive)"
  },
  {
    "Compound": "c1ccc(Cc2cc(-c3ccccc3)[nH]n2)cc1",
    "GI50": "24.8 µM (inactive)"
  },
  {
    "Compound": "O=C(ON=C1c2ccccc2C(Br)C(Br)c2ccccc21)c1ccccc1 (stereo not drawn)",
    "GI50": "12.7 µM (inactive)"
  },
  {
    "Compound": "Cc1ncc(C/N=C/c2ccc(Cl)cc2)c(N)n1",
    "GI50": "> 100 µM (inactive)"
  },
  {
    "Compound": "CN(C(=O)C12C3C4C1C1C2C3C41C(O)C(C)(C)C)C(C)(C)C (stereo not drawn)",
    "GI50": "> 100 µM (inactive)"
  },
  {
    "Compound": "COC(=O)C1SC[C@H]2C(=O)N(c3ccccc3)C(=O)N12 (stereo partly drawn)",
    "GI50": "> 100 µM (inactive)"
  },
  {
    "Compound": "Nc1ccc2c(c1)C1Oc3ccccc3CC1CO2 (stereo not drawn)",
    "GI50": "> 100 µM (inactive)"
  }
]
